- PROTOCOL: chemical genetic growth profiling, strain panel (AID 1159580);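 also: tested at 20 µM; growth read once vehicle control cultures reached saturation at 30 °C; lower values mean less growth of the strain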
- MEASUREMENT_SETUP: S. cerevisiae deletion strains, growth OD, locus YAL021C, strain ccr4, active compounds read low
Hit rate of the full screen: of about 5,500 compounds, about 2,000 (36%) were called active. About 18% were inconclusive and are not listed. The list shows a part of the results.
Lab note: cut-off is 1. Strictly less in normalized growth is Fulfilled. Exactly 1 or more is Not fulfilled.

Take a look at these entries with their results.
CCn1cc(C(=O)O)c(=O)c2cc(F)c(N3CCNCC3)nc21 | Fulfilled
OCC(O)CN1CCN(c2ccccc2)CC1 (configuration not stated) | Fulfilled
CCn1cc(C(=O)O)c(=O)c2cc(F)c(N3CCNC(C)C3)c(F)c21 (configuration not stated) | Fulfilled
CCC(C)C(=O)O[C@@H]1C[C@@]2(C)[C@H](c3ccoc3)OC(=O)CC23OC2(C)OC34[C@H](OC(=O)C(C)C)[C@@]3(O)[C@@H](OC(=O)C5(C)OC5C)[C@@]5(C)C[C@]3(O)[C@@](C)([C@H]5CC(=O)OC)C14O2 (some centres not stated) | Not fulfilled
CC1CCc2cc(F)cc3c(=O)c(C(=O)O)cn1c23 (configuration not stated) | Fulfilled

Alright, here's another compound for you.
Below 1 on normalized growth? Entry `Nc1nc(=S)c2[nH]cnc2[nH]1`
Fulfilled
